test: Steroid Solubility Test; assay type: physicochemical; conditions: organic solvent or mixture; solvent Diethyl sebacate; 20°C; read-out: maximum weight that could completely dissolve in 1 ml of solvent
property: solubility (µg/mL)
Number only, in µg/mL; omit the unit.

Input line: // solubility lookup, key: CCOC(=O)O[C@]1(C(=O)OCCl)CC[C@H]2[C@@H]3CCC4=CC(=O)C=C[C@]4(C)[C@H]3[C@@H](O)C[C@@]21C [Steroid A]
Output line: 6850

* * *

assay: Steroid Solubility Test; type: physicochemical; conditions: diethyl sebacate, organic solvent or mixture
property: solubility (µg/mL)
Number only, in µg/mL; omit the unit.

Input line: // solubility lookup, key: CCOC(=O)O[C@]1(C(=O)OCCl)[C@H](C)C[C@H]2[C@@H]3CCC4=CC(=O)C=C[C@]4(C)[C@@]3(F)[C@@H](O)C[C@@]21C [Steroid B]
Output line: 280
